Data credit: the RNAGym collection of RNA variant scans (doi:10.1038/nmeth.2970)

B1: NELF-E aptamer (parent)
chain: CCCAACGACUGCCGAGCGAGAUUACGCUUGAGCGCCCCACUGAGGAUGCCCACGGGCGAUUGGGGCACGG

# Variants of: B1
# Method: HiTS-RAP
# Test Conditions: with NELF-E (Drosophila)
Readout: log10(Kd) (log10 of the value in nM)
The figures below represent log10 of Kd, where Kd is stated in nM.

# Mutation String, Readout, Recorded Number
measured = [
    ("A5G C50G", "log10(Kd)", 0.81),
    ("G14A U28C", "log10(Kd)", 0.86),
]

Provide reported log10(Kd) for each item, in the same order as listed.
1. C17U U23G
2. G7C
3. A4U A21G
4. A24G A46G
5. U29G G30C
6. A8G G26A
7. U23G U61G
8. A4G C36G

0.69
0.81
0.76
1.06
0.71
0.65
0.84
1.02
